- MEASURED TARGET: acetylcholinesterase (AChE) (Electrophorus electricus, UniProt O42275)
- Construct: purchased Sigma-Aldrich
- Sequence (O42275 24-633): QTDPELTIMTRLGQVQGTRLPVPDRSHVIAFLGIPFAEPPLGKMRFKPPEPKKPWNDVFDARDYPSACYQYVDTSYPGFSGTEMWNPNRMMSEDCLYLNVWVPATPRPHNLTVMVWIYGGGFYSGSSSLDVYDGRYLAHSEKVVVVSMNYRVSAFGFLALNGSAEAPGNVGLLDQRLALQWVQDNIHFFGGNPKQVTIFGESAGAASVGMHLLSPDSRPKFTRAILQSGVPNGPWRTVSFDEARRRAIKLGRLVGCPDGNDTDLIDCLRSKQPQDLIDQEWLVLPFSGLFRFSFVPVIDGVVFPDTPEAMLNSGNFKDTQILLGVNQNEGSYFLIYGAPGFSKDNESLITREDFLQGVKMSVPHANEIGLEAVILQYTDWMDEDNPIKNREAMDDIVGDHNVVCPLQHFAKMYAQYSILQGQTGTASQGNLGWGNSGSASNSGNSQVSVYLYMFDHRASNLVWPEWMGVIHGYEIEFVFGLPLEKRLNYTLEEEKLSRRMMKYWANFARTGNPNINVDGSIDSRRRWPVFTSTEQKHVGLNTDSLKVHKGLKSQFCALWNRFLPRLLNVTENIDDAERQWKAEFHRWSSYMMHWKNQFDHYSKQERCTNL
- MEASUREMENT PROTOCOL: biochemical
- MEASUREMENT PARAMETERS: isolated components (Table 5)
MEASURED ENDPOINT: IC50 (µM)
// units = µM; emit number, no label

Here are 2 compounds together with their reported answers.
{"COMPOUND": "CC1CCC2(C(=O)O)CCC3(C)C(=CCC4C5(C)CC(O)C(O)C(C)(C)C5CCC43C)C2C1(C)O (stereo not drawn)", "UNITS SYMBOL": "µM", "DATA VALUE": 281}
{"COMPOUND": "O=C(/C=C/c1ccc(O)c(O)c1)O[C@@H]1C[C@](O)(C(=O)O)C[C@@H](O)[C@H]1O [Chlorogenic acid, chlorogenic acid, reference compound]", "UNITS SYMBOL": "µM", "DATA VALUE": 320}

Request: Item "C[C@H]1[C@H](C)CC[C@]2(C(=O)O)CC[C@]3(C)C(=CC[C@@H]4[C@@]5(C)C[C@@H](O)[C@H](O)C(C)(C)[C@@H]5CC[C@]43C)[C@H]12" has what recorded IC50?
Response: 283

Request: What value of IC50 has been reported for the following compound? "C[C@@H]1O[C@@H](OC[C@H]2O[C@@H](Oc3c(-c4ccc(O)c(O)c4)oc4cc(O)cc(O)c4c3=O)[C@H](O)[C@@H](O)[C@@H]2O)[C@H](O)[C@H](O)[C@H]1O"
Response: 452

Request: Requested field: IC50. Item: "C[C@H]1[C@H](C)CC[C@]2(C(=O)O)CC[C@]3(C)C(=CC[C@@H]4[C@@]5(C)CC[C@H](O)C(C)(C)[C@@H]5CC[C@]43C)[C@H]12"
Response: 311

Request: Look up IC50 for this compound: Oc1cc(O)c2c(c1)O[C@H](c1ccc(O)c(O)c1)[C@H](O)C2 [Epicatechin (5), epicatechin]
Response: 405

---

- MEASUREMENT PROTOCOL: Radical scavenging activity of superoxide
- MEASUREMENT PARAMETERS: isolated components (Table 4); read-out: SC50 Superoxide
- Experimental: According to a previously reported procedure, the superoxide radical solution was prepared in Tris-HCl buffer (16 mM, pH 8.0) containing 300 µM NBT (50 µL), 120 µM PMS (50 µL), and tested sample solution (50 µL). […] The absorbance at 560 nm was measured using an ELISA reader, and the scavenging activity was calculated by the following equation. Scavenging rate (%) = (Acontrol − Asample)/Acontrol × 100% where Acontrol was the absorbance of the control and Asample was that of the tested sample.
pEC50: −log10 of the molar value.
MEASURED ENDPOINT: pEC50

{"COMPOUND": "CC1CCC2(C(=O)O)CCC3(C)C(=CCC4C5(C)CC(O)C(O)C(C)(C)C5CCC43C)C2C1(C)O (stereo not drawn) [Tormentic acid (4), tormentic acid]", "DATA VALUE": "< 3.40"}

Request: Would you kindly share the measured pEC50 for C[C@H]1[C@H](C)CC[C@]2(C(=O)O)CC[C@]3(C)C(=CC[C@@H]4[C@@]5(C)C[C@@H](O)[C@H](O)C(C)(C)[C@@H]5CC[C@]43C)[C@H]12 [Corosolic acid (3), corosolic acid] ?
Response: < 3.40

Request: May I ask what pEC50 has been recorded for CC1(C)CC[C@]2(C(=O)O)CC[C@]3(C)C(=CC[C@@H]4[C@@]5(C)CC[C@H](O)C(C)(C)[C@@H]5CC[C@]43C)[C@@H]2C1 [Oleanolic acid (1), oleanolic acid] ?
Response: < 3.40

All figures here come from paper PMC12024191.
